Test: physchem
Conditions: weakly alkaline water
test readout: degraded

Can you look up the measured degraded of CN(CC(=O)O)C(=N)N [creatine, N-(aminoiminomethyl)-N-methylglycine] for me?
~15%
